These entries and their values trace back to patent US9072698B2.

System: HCT15 (colon adenocarcinoma)
Test: In vitro cytotoxicity, sulforhodamine B (SRB) method, HCT15
Assay type: cell-based
Settings: Homo sapiens; HCT-15, SRB method; read-out: cytotoxicity (ED50) HCT-15
What IC50 was measured for each of the following?

>>> result("O=C(/C=C/c1ccc(O)c(O)c1)c1ccc(OS(=O)(=O)c2cccc(O)c2)cc1")
"7 mg/L"
>>> result("Nc1ccc(S(=O)(=O)Nc2ccc(C(=O)/C=C/c3ccc(O)cc3)cc2)cc1")
"52 mg/L"
>>> result("O=C(/C=C/c1ccc(O)c(O)c1)c1ccc(NS(=O)(=O)c2ccc(F)cc2)cc1")
"10 mg/L"

# batch: return IC50 for each of the 4 compounds below
1. O=C(/C=C/c1ccc(O)cc1)c1ccc(OS(=O)(=O)c2ccccc2)cc1 [Compound 40, 4′-(benzenesulfonate)-4-hydroxychalcone]
2. O=C(/C=C/c1ccccc1O)c1cccc(NS(=O)(=O)c2ccc(O)cc2)c1
3. CS(=O)(=O)Nc1ccc(C(=O)/C=C/c2ccc(O)c(O)c2)cc1
4. O=C(/C=C/c1ccc(O)cc1O)c1cccc(NS(=O)(=O)c2cccc(O)c2)c1

["31 mg/L", "39 mg/L", "12 mg/L", "11 mg/L"]
